Tested on: RAW264.7
Experiment: Antiinflammatory activity in mouse RAW264.7 cells assessed as inhibition of LPS-induced TNFalpha production pretreated for 30 mins followed by LPS-stimulation and measured after 24 hrs by ELISA
Format: functional, cell-based
Value Type: IC50 (µM)
Field: numeric (µM). Do not append units.

Tell me the measured IC50 of `C=C(C)[C@H](O)Cc1c(O)ccc(C(=O)/C=C/c2ccccc2)c1O` , please. 1.2

Could you tell me which IC50 is on file for C=C(C)C(O)Cc1c(O)ccc(C(=O)/C=C/c2ccccc2)c1O (racemic) ? 1.6

----------
Tested on: RAW264.7
Experiment: Antiinflammatory activity in mouse RAW264.7 cells assessed as inhibition of LPS-induced IL-6 production pretreated for 30 mins followed by LPS-stimulation and measured after 24 hrs by ELISA
Format: functional, cell-based
Exercise: state measured pIC50 for each of the molecules provided.
As a rule, pIC50 stands for the negative log10 of the concentration, concentration in M.

Entry C=C(C)C(O)Cc1c(O)ccc(C(=O)/C=C/c2ccccc2)c1O (racemic) has what pIC50? 5.96

Which value of pIC50 has been reported for `C=C(C)[C@H](O)Cc1c(O)ccc(C(=O)/C=C/c2ccccc2)c1O` in the records? 5.96

Source of measurements: ChEMBL document CHEMBL4480458
